- Test system: E. coli TESEC Mtb DapB
- Procedure summary: growth (OD600 after 10 h); higher = more growth (less inhibition)
- Measurement conditions: arabinose induction (level): Low; compound 0.1 mM; raw OD600 reference: median of DMSO wells 0.227, cell-free background 0.041
# label = 1 if growth >= 0.2 else 0

Look over these answered cases.
>>> assigned_category("CC(=O)O[C@]1(C(C)=O)CC[C@H]2[C@@H]3C=C(C)C4=CC(=O)CC[C@]4(C)[C@H]3CC[C@@]21C [Megestrol acetate]")
1
>>> assigned_category("Nc1nc(=O)[nH]cc1F")
1
>>> assigned_category("CC(C)(C#N)c1cc(Cn2cncn2)cc(C(C)(C)C#N)c1")
1

// next entry
-- ask Does COc1cc2ncnc(Nc3ccc(F)c(Cl)c3)c2cc1OCCCN1CCOCC1 have a reported growth of at least 0.2?
-- reply 1
